Provide the reported MIC of each item.
- System: S. aureus GC 1131
- Experiment Description: In vitro MIC, broth dilution
- Format: cell-based
- Settings: Staphylococcus aureus, GC1131; S. aureus GC 1131; read-out: MIC
I only need the number, in µg/mL, no unit after it.

Req: Hello, please tell me recorded MIC for this one: CC(C)C[C@H](N)C(=O)NCCCN[C@H](C(=O)OC(C)(C)C)[C@@H](O)C1O[C@@H](n2ccc(=O)[nH]c2=O)[C@H](O[Si](C)(C)C(C)(C)C)[C@@H]1O[Si](C)(C)C(C)(C)C (some centres unmarked) [Example 7]
Resp: 1

Req: Hello, please tell me recorded MIC for this one: COc1ccc(Cn2c(=O)ccn([C@@H]3OC([C@@H](O)[C@H](NCCCNC(=O)[C@@H](N)[C@H](C)O)C(=O)OC(C)(C)C)[C@@H](O[Si](C)(C)C(C)(C)C)[C@H]3O[Si](C)(C)C(C)(C)C)c2=O)cc1 (some centres unmarked) [Example 9]
Resp: 128
